- System: U2OS
- procedure_details: Multiplex assay against U2OS
- Format: toxicity, cell-based
- condition_summary: human, 12 h, 10 µM, compound concentration 10 uM, replicate 1
quantity_name: Population Mitochondria Different-Phenotype (%)

{"molecule": "O=C(NCC(=O)N1CC[C@H](N[C@H]2CC[C@@](O)(c3ccc(-c4ncccn4)cn3)CC2)C1)c1cccc(C(F)(F)F)c1 [PF-4136309]", "experimental_result": 4}
{"molecule": "c1cc(OCCCN2CCCCC2)ccc1CN1CCCCC1 [JNJ-5207852]", "experimental_result": 3}
{"molecule": "Cc1ccc(/C(=C\\CN2CCCC2)c2ccccn2)cc1 [TRIPROLIDINE]", "experimental_result": 23}
{"molecule": "CN(C)CCCc1cc(C(=O)Nc2ccc(-c3ccncc3)cc2)ccc1O.Cl.Cl", "experimental_result": 1}
{"molecule": "CC(=O)NCCc1c(Cc2ccccc2)[nH]c2ccccc12 [LUZINDOLE]", "experimental_result": 3}
{"molecule": "Cc1nc2ccc(Oc3ccc(F)cc3)cc2c(=O)n1C[C@H]1CCCN(C(C)C)C1.Cl", "experimental_result": 61}
{"molecule": "CN1CCN(c2nc3cc(C(F)(F)F)ccc3n3cccc23)CC1.O=C(O)/C=C\\C(=O)O.O=C(O)/C=C\\C(=O)O", "experimental_result": 45}
{"molecule": "CCCn1c(=O)c2[nH]c(C3CCCC3)nc2n(CCC)c1=O", "experimental_result": 1}
{"molecule": "CC(C)(C)c1ccc(S(=O)(=O)Nc2ccc(Cl)cc2C(=O)c2cc[n+]([O-])cc2)cc1 [VERCIRNON]", "experimental_result": 2}
{"molecule": "CNC[C@H](O)c1ccc(O)c(O)c1 [EPINEPHRINE]", "experimental_result": 1}
{"molecule": "C[C@H]1[C@H]2CC[C@H]3[C@@H]4CC=C5C[C@@H](N(C)C)CC[C@]5(C)[C@H]4CC[C@]23CN1C [CONESSINE]", "experimental_result": 0}
{"molecule": "CCCC(CCC)C(=O)O [VALPROIC ACID]", "experimental_result": 3}
{"molecule": "Cc1ccccc1C(=O)Nc1ccc(C(=O)N2CCCC(N(C)C)c3ccccc32)cc1.Cl (stereo unspecified)", "experimental_result": 11}
{"molecule": "COc1cc(C(=O)N(CCCc2ccccc2)Cc2ccc(CC(=O)O)cc2)cc(OC)c1C", "experimental_result": 0}
{"molecule": "O=S(=O)(c1ccccc1)c1cnc2c(N3CCNCC3)cccc2c1 [INTEPIRDINE]", "experimental_result": 11}
{"molecule": "O=C(NCCO)c1cccc(-c2cc(Nc3ccc(OC(F)(F)F)cc3)ncn2)c1", "experimental_result": 7}
